Test system: SK-MEL-2 melanoma
Assay: NCI tumour cell line growth inhibition, 48 h
measurement_type: GI50

compound	GI50
C=C1C(=O)O[C@H]2[C@H]1CC/C(Cn1cc(CCC)nn1)=C\CC[C@@]1(C)O[C@@H]21	16.3 µM
CN1CCN(c2ccc3nc(-c4ccc(OCCCN5C(=O)c6cccc7cccc(c67)C5=O)cc4)[nH]c3c2)CC1	25.2 µM
COc1cccc2c1C(=O)c1c(O)c3c(c(O)c1C2=O)C[C@@](O)(C(C)=O)C[C@@H]3OC1CC(N)C(O)C(C)O1 (some centres not stated)	0.122 µM
O=C(CCN1CCCC1)Nc1ccc2c(NCCCCc3ccccc3)c3ccccc3nc2c1	1.76 µM
C=C1C(=O)O[C@H]2[C@H]1CC/C(COC(=O)CCC(=O)OC/C1=C/CC[C@@]3(C)O[C@H]3[C@H]3OC(=O)C(=C)[C@@H]3CC1)=C\CC[C@@]1(C)O[C@@H]21	2.89 µM

In: Look at this compound and give its reported GI50. CC(O)CN(CCN(CC(C)O)CC(C)O)CC(C)O.O=[N+]([O-])O.[Cu+2] (configuration not stated)
Out: > 100 µM

In: CCOc1ccc2c(c1)/C(=C\C=C\C1CC(C)C3CC(OCC)CCC3N1CC)CC(C)N2CC (configuration not stated) ?
Out: 1.66 µM

In: Cc1ccc(/C=C(\C#N)n2nnc3cc(F)c(F)cc32)cc1 ?
Out: 2.26 µM

In: O=C1c2cc3c(cc2-c2c1c1ccc([N+](=O)[O-])cc1c(=O)n2CCCCl)OCO3 ?
Out: > 100 µM

In: Cn1c(=O)c(Cc2ccc(F)cc2F)cc2cnc(NC3CCOCC3)nc21 ?
Out: > 25 µM

In: CC1=C(C)C(=O)C(C(C)C2=C(C)C(=O)C(C)=C(C)C2=O)=C(C)C1=O ?
Out: 33.8 µM

In: O=C(NC(=S)NS(=O)(=O)c1ccc(N2N=C3c4ccccc4CC3C2c2cccs2)cc1)c1ccccc1 (configuration not stated) ?
Out: 44 µM

Just for reference, PubChem BioAssay (NCI) is where these values come from.
